# test_protocol: In vitro dissolution studies: dynamic solubility in buffers and simulated biological fluids
# Assay type: physicochemical
# test_settings: aqueous buffer, thermodynamic from solid; Phosphate buffer (pH 6.8), 2 h, 37 °C, mean
outcome_measure: solubility at 2 h (µg/mL)
Your answer is read as µg/mL, so omit the unit and give the number.

What value of solubility at 2 h has been recorded for this entry: CC(C)Cc1ccc(C(C)C(=O)O)cc1 (stereo not shown) [Ibu, Ibuprofen, reference compound]
2900

---

# test_protocol: In vitro dissolution studies: dynamic solubility in buffers and simulated biological fluids
# Assay type: physicochemical
# test_settings: FaSSIF-V1 (fasted state simulated intestinal fluid), thermodynamic from solid; FaSSIF-V1 (pH 6.5), 0.5 h, 37 °C, mean
outcome_measure: solubility at 0.5 h (µg/mL)
Kindly answer with a numeric value in µg/mL, unit omitted.

I am curious: what solubility at 0.5 h value has been reported for COc1ccc2cc3[n+](cc2c1OC)CCc1cc2c(cc1-3)OCO2 [BBR, Berberine chloride dihydrate] ?
151

---

# test_protocol: In vitro dissolution studies: dynamic solubility in buffers and simulated biological fluids
# Format: physicochemical
# test_settings: fed state simulated intestinal fluid (FeSSIF-V1), thermodynamic from solid; FeSSIF-V1 (pH 5.0), 1 h, 37 °C, mean
outcome_measure: solubility at 1 h (µg/mL)
Respond with the bare value in µg/mL.

Need solubility at 1 h of CC(C)Cc1ccc(C(C)C(=O)O)cc1 (stereo not shown) [Ibu, Ibuprofen, reference compound] , thanks.
780

---

# test_protocol: In vitro dissolution studies: dynamic solubility in buffers and simulated biological fluids
# Assay type: physicochemical
# test_settings: FaSSIF-V1 (fasted state simulated intestinal fluid), thermodynamic from solid; FaSSIF-V1 (pH 6.5), 24 h, 37 °C, mean
outcome_measure: solubility at 24 h
Reply with the number and its unit after it.

Query: solubility at 24 h; subject: COc1ccc2cc3[n+](cc2c1OC)CCc1cc2c(cc1-3)OCO2 [BBR, Berberine chloride dihydrate]
64.1 µg/mL

---

# test_protocol: In vitro dissolution studies: dynamic solubility in buffers and simulated biological fluids
# Format: physicochemical
# test_settings: Acetate buffer (pH 4.5), 1 h, 37 °C, mean
outcome_measure: solubility at 1 h (µg/mL)
Report only the number, with the unit µg/mL understood.

{"columns": ["compound", "solubility at 1 h (µg/mL)"],
 "data": [
  ["COc1ccc2cc3[n+](cc2c1OC)CCc1cc2c(cc1-3)OCO2 [BBR, Berberine chloride dihydrate]", 2070]
]}

// next entry
solubility at 1 h for CC(C)Cc1ccc(C(C)C(=O)O)cc1 (centres unmarked) [Ibu, Ibuprofen, reference compound] ?
103

---

# test_protocol: In vitro dissolution studies: dynamic solubility in buffers and simulated biological fluids
# Format: physicochemical
# test_settings: Phosphate buffer (pH 6.8), 2 h, 37 °C, mean
# Description: Solubilities were determined by adding excess sample to 30 mL different mediums, such as HCl solution, acetate buffer, phosphate buffer, SGF, FaSSIF and FeSSIF. The configuration of various buffer solutions is shown in Supplementary Table 2. After being shaken at 400 rpm at 37 °C for 0.5, 1, 2, and 24 h, 0.3 mL of suspension was sampled and centrifuged at 14,000 rpm for 8 min to isolate mother liquor, and then analyzed by HPLC after dilution. All samples were analyzed in triplicate.
outcome_measure: solubility at 2 h (µg/mL)
Answer in µg/mL, number only, no unit symbol.

GET /values?readout=solubility at 2 h&item= COc1ccc2cc3[n+](cc2c1OC)CCc1cc2c(cc1-3)OCO2 [BBR, Berberine chloride dihydrate]
1790

---

# test_protocol: In vitro dissolution studies: dynamic solubility in buffers and simulated biological fluids
# Assay type: physicochemical
# test_settings: SGF (simulated gastric fluid); SGF (pH 2.0), 24 h, 37 °C, mean
outcome_measure: solubility at 24 h (µg/mL)
# number only, unit µg/mL dropped from output

Can you look up the measured solubility at 24 h of COc1ccc2cc3[n+](cc2c1OC)CCc1cc2c(cc1-3)OCO2 [BBR, Berberine chloride dihydrate] for me?
110

---

# test_protocol: In vivo pharmacokinetics studies after gavage
# test_settings: male, SD, rat, plasma, po
outcome_measure: Tmax (min)
Return type: number; implicit unit min.

State the recorded Tmax for this entry: COc1ccc2cc3[n+](cc2c1OC)CCc1cc2c(cc1-3)OCO2 [BBR, Berberine chloride dihydrate]
30

---

# test_protocol: In vitro dissolution studies: dynamic solubility in buffers and simulated biological fluids
# Assay type: physicochemical
# test_settings: aqueous buffer, thermodynamic from solid; Acetate buffer (pH 4.5), 2 h, 37 °C, mean
outcome_measure: solubility at 2 h (µg/mL)
Give your result in µg/mL as a bare value.

Given CC(C)Cc1ccc(C(C)C(=O)O)cc1 (stereo not shown) [Ibu, Ibuprofen, reference compound] , state its recorded solubility at 2 h.
124

---

# test_protocol: In vitro dissolution studies: dynamic solubility in buffers and simulated biological fluids
# Type: physicochemical
# test_settings: fed state simulated intestinal fluid (FeSSIF-V1), thermodynamic from solid; FeSSIF-V1 (pH 5.0), 0.5 h, 37 °C, mean
outcome_measure: solubility at 0.5 h (mg/mL)
Numeric only. Scale: mg/mL

Value lookup for solubility at 0.5 h; key = CC(C)Cc1ccc(C(C)C(=O)O)cc1 (stereo not shown) [Ibu, Ibuprofen, reference compound]
0.798

---

# test_protocol: In vitro dissolution studies: dynamic solubility in buffers and simulated biological fluids
# Assay type: physicochemical
# test_settings: fed state simulated intestinal fluid (FeSSIF-V1), thermodynamic from solid; FeSSIF-V1 (pH 5.0), 2 h, 37 °C, mean
outcome_measure: solubility at 2 h (µg/mL)
Note: unit µg/mL is implicit; provide only the numeric part.

Record request: solubility at 2 h value, item CC(C)Cc1ccc(C(C)C(=O)O)cc1 (stereo not shown) [Ibu, Ibuprofen, reference compound]
890

---

# test_protocol: In vitro dissolution studies: dynamic solubility in buffers and simulated biological fluids
# Assay type: physicochemical
# test_settings: fasted state simulated intestinal fluid (FaSSIF-V1); FaSSIF-V1 (pH 6.5), 2 h, 37 °C, mean
outcome_measure: solubility at 2 h (µg/mL)
API: value field is a number in µg/mL; no unit string.

Sample CC(C)Cc1ccc(C(C)C(=O)O)cc1 (stereo not shown) [Ibu, Ibuprofen, reference compound] — what was its solubility at 2 h?
1610

---

# test_protocol: In vitro dissolution studies: dynamic solubility in buffers and simulated biological fluids
# Format: physicochemical
# test_settings: aqueous buffer, thermodynamic from solid; Acetate buffer (pH 4.5), 24 h, 37 °C, mean
# Experimental: Solubilities were determined by adding excess sample to 30 mL different mediums, such as HCl solution, acetate buffer, phosphate buffer, SGF, FaSSIF and FeSSIF. The configuration of various buffer solutions is shown in Supplementary Table 2. After being shaken at 400 rpm at 37 °C for 0.5, 1, 2, and 24 h, 0.3 mL of suspension was sampled and centrifuged at 14,000 rpm for 8 min to isolate mother liquor, and then analyzed by HPLC after dilution. All samples were analyzed in triplicate.
outcome_measure: solubility at 24 h

Requested field: solubility at 24 h. Item: CC(C)Cc1ccc(C(C)C(=O)O)cc1 (stereo not shown) [Ibu, Ibuprofen, reference compound]
125 µg/mL

---

# test_protocol: In vitro dissolution studies: dynamic solubility in buffers and simulated biological fluids
# Format: physicochemical
# test_settings: FeSSIF-V1 (fed state simulated intestinal fluid); FeSSIF-V1 (pH 5.0), 1 h, 37 °C, mean
outcome_measure: solubility at 1 h (µg/mL)
Please respond with the number in µg/mL and leave the unit unwritten.

# lookup: solubility at 1 h of COc1ccc2cc3[n+](cc2c1OC)CCc1cc2c(cc1-3)OCO2 [BBR, Berberine chloride dihydrate]
107

---

# test_protocol: In vitro dissolution studies: dynamic solubility in buffers and simulated biological fluids
# Type: physicochemical
# test_settings: FeSSIF-V1 (fed state simulated intestinal fluid), thermodynamic from solid; FeSSIF-V1 (pH 5.0), 0.5 h, 37 °C, mean
outcome_measure: solubility at 0.5 h

So what's the measured solubility at 0.5 h for this one? COc1ccc2cc3[n+](cc2c1OC)CCc1cc2c(cc1-3)OCO2 [BBR, Berberine chloride dihydrate]
137 µg/mL

Provenance of the data: paper PMC9374667
